Source: patent US8632792B2

Tested on: professional examiners
Test: Cooling treated towel (direct spraying), organoleptic ranking of cooling action
Type: in vivo
Details: Group B; air-dried 24 hr; 1% ethanol solution; low sum = strong
Text: […]
Classify as follows. Reported sum of the ranking numbers (cooling effect on treated hand towel at direct spraying) greater than or equal to 9: y. Reported sum of the ranking numbers (cooling effect on treated hand towel at direct spraying) below: n.

**Query** Could you verify whether the entry CC(C)[C@@H]1CC[C@@H](C)C[C@H]1O [l-Menthol, 1-menthol, reference compound] shows sum of the ranking numbers (cooling effect on treated hand towel at direct spraying) of no less than 9?
**Result** y

**Query** Form field: sum of the ranking numbers (cooling effect on treated hand towel at direct spraying) at least 9? Entry: CC(C)[C@@H]1CC[C@@H](C)C[C@H]1OC(=O)O[C@@H]1C[C@H](C)CC[C@H]1C(C)C [Di-l-menthyl carbonate, di-1-menthyl carbonate]
**Result** y

**Query** Given CC(C)=CCCC1(C)OCC(CO[C@@H]2C[C@H](C)CC[C@H]2C(C)C)O1 (some centres unmarked) , state whether its sum of the ranking numbers (cooling effect on treated hand towel at direct spraying) is at least 9.
**Result** n

**Query** Is the recorded value of sum of the ranking numbers (cooling effect on treated hand towel at direct spraying) equal to or greater than 9 for this molecule? CC(C)=CCC[C@H](C)CC1OCC(CO[C@@H]2C[C@H](C)CC[C@H]2C(C)C)O1 (some centres unmarked)
**Result** y
